experimental details: Half life in mouse liver microsomes
Format: ADME, microsome
quantity kind: half-life

| smiles str | half-life |
| --- | --- |
| CN(CC(=O)N(Cc1ccc(C2CCCCC2)cc1)c1ccc(C(=O)NO)cc1)S(=O)(=O)c1c(F)c(F)c(F)c(F)c1F | ≥ 17 min |
| CN(CC(=O)N(Cc1ccc(C2CCCCC2)cc1)c1ccc(C(=O)O)cc1)S(=O)(=O)c1c(F)c(F)c(F)c(F)c1F | ≥ 17 min |

Shift focus to the following entry.
-- ask Find the recorded half-life belonging to O=C(O)c1ccc(N(Cc2ccc(C3CCCCC3)cc2)C(=O)[C@@H]2CCCN2S(=O)(=O)c2c(F)c(F)c(F)c(F)c2F)c(F)c1 and report it.
-- reply 26 min
